Target: T1, recombinant NT-proBMP10 (22-312) (human, UniProt O95393 22-312)
T1 construct: In-house construct; also called pro-peptide BMP10; BMP10(312)
T1 sequence: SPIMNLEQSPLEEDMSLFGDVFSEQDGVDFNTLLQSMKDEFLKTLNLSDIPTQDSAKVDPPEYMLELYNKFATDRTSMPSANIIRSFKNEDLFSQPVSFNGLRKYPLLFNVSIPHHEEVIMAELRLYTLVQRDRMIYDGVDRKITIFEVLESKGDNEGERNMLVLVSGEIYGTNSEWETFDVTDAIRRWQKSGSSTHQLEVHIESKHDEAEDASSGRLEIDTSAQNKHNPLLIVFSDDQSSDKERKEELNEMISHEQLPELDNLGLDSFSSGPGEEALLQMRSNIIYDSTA
Assay: SPR Biacore 8K, 37°C, mAb captured by goat anti-rabbit Fc, BMP10(312) 3.7-300 nM as analyte; apparent, avidity-burdened
Observed property: koff

{"columns": ["Binder", "Observed property", "Result"],
 "data": [
  ["MAB<BMP10>rRb-9E7 HC12/LC7 (p10rw/p10rx)-IgG(SPA) (antibody, V domains shown, Recombinant rabbit monoclonal IgG; also called clone 9E7) VH: QSLEESGGGLVQPEGSLTLTCIASAFSFSSGYYMCWVRQAPGKGLEWIACIYAGSSGTTYYASWAKGRFTISKASSTTVTLLMTSLTAADTATYFCARGPGASGYRLGLWGPGTLVTVSS VL: DVVMTQTPASVSEPVGGTVTIKCQASEDIYRLLAWYQQKPGQPPKLLIYDASDLASGVPSRLSGSGSGTEYTLSISDLECADAATYYCQQGYYISGGDSFGGGTEVVVK", "koff", "0.00054 s⁻¹"],
  ["MAB<BMP10>rRb-8G5 HC3/LC5 (p10qz/p10ra)-IgG(SPA) (antibody, V domains shown, Recombinant rabbit monoclonal IgG; also called clone 8G5; VH-8/VL-8) VH: QSLEESGGDLVKPGASLTLTCTASGFSFSSSYWICWVRQAPGKGLEWIACIYAGSSDITYYASWAKGRFTVSKTSSPTVTLQMTSLTAADTATYFCARGRYYVDGYADYYPGDFNLWGPGTLVTVSS VL: DIVMTQTPASVEAAVGGTVTIKCQASQSISSYLAWYQQKSGQPPKLLIYLASTLESGVPSRFKGSGSGTEFTLTISDLECADAATYYCQSYYYSSSSSYGSAFGGGTEVVVK", "koff", "0.0021 s⁻¹"],
  ["MAB<BMP10>rRb-13G6 (p10tf/p10tg)-IgG(SPA) (antibody, V domains shown, Recombinant rabbit monoclonal IgG; also called clone 13G6; VH-4/VL-4) VH: QSLEESGGRLVTPGTPLTLTCTVSGFSLSNYAMSWVRQAPGMGLEYIGYISASGNTYYASWVKGRFTISKTSTTVDLKMTSPTTEDTATYFCARGYSGWISGTWAVGQGTLVTVSS VL: AVLTQTPSPVSAAVGGTVNIGCQSSQSVVNNNRLSWFQQRPGQPPKQLIYRASTLASGVPSRFKGSGSGTQFTLTISDVQCDDAATYYCLGDYVSYSEAAFGGGTEVVVK", "koff", "< 0.0001 s⁻¹"],
  ["MAB<BMP10>rRb-2H8 HC7/LC6 (p10qv/p10qw)-IgG(SPA) (antibody, V domains shown, Recombinant rabbit monoclonal IgG; also called clone 2H8; VH-6/VL-6) VH: QSVEESGGRLVTPGTPLTLTCTASAFSLSRYVMSWVRQAPGKGLEFIGFINASGSTSYASWAKGRFTISKTSTTVDLKMTSLTTEDTATYFCATGNLWGPGTLVTVSS VL: DIVMTQTPSSVSGPVGGTVTINCQASQNIYSNLAWYQQKPGQPPKLLIYYASTLVSGVPSRFKGSGSGTQFTLTISDLECANAATYYCQSKDGPTSSTYGAFGGGTEVVVR", "koff", "0.0003 s⁻¹"],
  ["MAB<BMP10>rRb-11A5 HC6/LC3.2 (p10se/p10sf)-IgG(SPA) (antibody, V domains shown, Recombinant rabbit monoclonal IgG; also called clone 11A5; VH-2/VL-2) VH: QSVEESGGRLVTPGTPLTLTCTASGFSLSSYAMSWVRQAPGKGLQFIGYISGGGSTYYASWVKGRFTISKTSTTVDLKLTSPTTEDTATYFCARGYPGYISGTWAVGQGTLVTVSS VL: AVLTQTPSPVSAAVGGTVSISCQSSQSVVNNNRCSWFQQKPGQPPKQLIYSASTLASGVPSRFKGSGSGTQFTLTISDVQCDDAATYYCLGDYVSYGDSAFGGGTEVVVK", "koff", "0.00039 s⁻¹"],
  ["MAB<BMP10>rRb-14C8 HC2/LC3 (p10th/p10ti)-IgG(SPA) (antibody, V domains shown, Recombinant rabbit monoclonal IgG; also called clone 14C8; VH-5/VL-5) VH: QSVEESGGRLVTPGTPLTLTCTASGIDLSRYAMTWVRQAPGKGLEWIGIIGASSGTWYASWAKGRFTIAKTSTTVDLRITSPTTEDTATYFCARDNGDSKDYAFDPWGPGTLVTVSS VL: IDMTQTPSPVSAAVGDTVTINCQASENIYSFLAWYQQKPGHSPNLLIYFASKLVSGVPSRFKGSGSGTQFTLTISDVQCDDAATYYCQQTYTYSNGDNPFGGGTEVVVK", "koff", "0.0012 s⁻¹"],
  ["11C10 (antibody, V domains shown, Rabbit monoclonal IgG; also called clone 11C10; VH-3/VL-3) VH: QSLEESGGRLVTPGTALTVTCTVSGIDLSRNLMSWVRQAPGEGLEWIGSINFRNITWYASWAKGRFTISKTSTTVDLRISSPTTEDTATYFCARGVYVNSNGYYSLWGQGTPVTVSS VL: DIVMTQTPASVEAAVGGTVTINCQASQSVSNLLAWYQQKPGQPPKLLIYGASKLESGVPSRFKGSGSGTQFTLTINDLECDDAATYYCQTYWGGDGTSYLNPFGGGTEVVVK", "koff", "0.00045 s⁻¹"],
  ["MAB<BMP10>rRb-3H8 HC3/LC3 (p10qx/p10qy)-IgG(SPA) (antibody, V domains shown, Recombinant rabbit monoclonal IgG; also called clone 3H8; VH-7/VL-7) VH: QSVEESGGRLVTPGTPLTLTCTASGFSLSKYDMSWVRQAPGKGLEWIGAIGGRGVTDYTTWAKGRFTISKTATTVDLKMTSPTTEDTATYFCVRALAGDTLWGPGTLVTVSS VL: AQVLTQTASPVSAAVGSTVTINCQASQNIYKYNNLAWYQQKPGQPPKRLIYEASKLASGVPSRFSGSGSGTQFTLTISGVQCEDAATYYCQGTFECSSADCFGFGGGTEVVVK", "koff", "0.00078 s⁻¹"]
]}

Recorded values, source patent US20230095167A1.
